Reported Trimeric HA Binding RLU values follow for various binders
- target-under-test: recombinant soluble homotrimeric HA of A/duck/Yangzhou/02/2005 (H8N4) (Influenza A virus A/duck/Yangzhou/02/2005 (H8N4))
- assay-name: HA microarray, BCC supernatant
- measurement-setup: remark: other sources report otherwise
Numeric answer only, unit RLU assumed.

Output measured Trimeric HA Binding RLU for this item: TCN-531 (5091_H13) (antibody, V domains shown) VH: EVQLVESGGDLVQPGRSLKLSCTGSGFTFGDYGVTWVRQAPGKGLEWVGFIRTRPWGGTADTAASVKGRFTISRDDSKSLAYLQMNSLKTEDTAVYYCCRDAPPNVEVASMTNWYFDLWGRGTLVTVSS VL: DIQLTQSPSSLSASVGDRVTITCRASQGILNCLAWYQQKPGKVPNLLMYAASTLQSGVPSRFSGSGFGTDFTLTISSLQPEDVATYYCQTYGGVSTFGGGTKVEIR
3120

Note Trimeric HA Binding RLU for the binder shown: TCN-527 (5086_C06) (antibody, V domains shown) VH: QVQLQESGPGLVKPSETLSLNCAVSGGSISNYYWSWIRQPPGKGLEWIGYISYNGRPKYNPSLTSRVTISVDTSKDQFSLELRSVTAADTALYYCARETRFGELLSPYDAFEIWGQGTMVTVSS VL: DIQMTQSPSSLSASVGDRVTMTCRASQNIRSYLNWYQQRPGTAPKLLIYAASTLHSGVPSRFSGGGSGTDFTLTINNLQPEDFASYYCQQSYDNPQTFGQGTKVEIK
28800

Numbers sourced from patent US20150104459A1.
